Test system: DU-145 prostate
Assay: NCI-60 one-dose screen, 48 h (100 = growth as untreated, 0 = no growth, -100 = all killed)
Settings: 10 µM unless noted
Experimental: Cells are grown in 96 well plates and exposed to the test compound for 48 hours. Compounds are tested at a single concentration, which is 10^-5 M for most compounds. The reported endpoint is percent growth (GI% or GIPRCNT), where numbers from 0 - 100% represent growth inhibition, and numbers from -100% - 0 represent cell death. For example, a value of 40 represents 60% growth inhibition. A value of 0 means no net growth occurred over the course of the experiment. […]
Compounds without any hit were thinned out: in the full panel of roughly 83,000, 20% have a hit.
Label no (0) if growth falls below 70%; label yes (1) in every other case.

{"compound": "Clc1ccc(C2CC(c3cccc(Nc4ccncc4)c3)=NN2c2ccc(Cl)cc2)cc1 (stereo unspecified)", "system under test": "DU-145 prostate", "category label": "no (0)"}
{"compound": "CC(O)/C=C/C=C/C(O)CC/C=C/C(=O)NCC(C)(C)O (stereo unspecified)", "system under test": "DU-145 prostate", "category label": "yes (1)"}
{"compound": "CC(c1ccccc1)n1ccnc1CO (stereo unspecified)", "system under test": "DU-145 prostate", "category label": "yes (1)"}
{"compound": "Cn1/c(=N/NC(N)=S)ccc2ccccc21", "system under test": "DU-145 prostate", "category label": "yes (1)"}
{"compound": "CC1CCN(C(=O)OCc2nc3nc(Cl)nc(N4CCOCC4)c3[nH]2)CC1", "system under test": "DU-145 prostate", "category label": "no (0)"}
{"compound": "COc1cc(CNC(=O)CCCCC[P+](c2ccccc2)(c2ccccc2)c2ccccc2)c(OC)c2c1OCO2", "system under test": "DU-145 prostate", "category label": "yes (1)"}
{"compound": "O=C(O)/C=C\\C(=O)N1C/C(=C\\c2ccccc2Cl)C(=O)/C(=C/c2ccccc2Cl)C1", "system under test": "DU-145 prostate", "category label": "no (0)"}
{"compound": "COc1ccc(NC(=O)c2sc3nc(C)c(C(=O)c4ccc(OC)cc4)cc3c2N)cc1", "system under test": "DU-145 prostate", "category label": "no (0)"}
{"compound": "COc1ccc2c(c1)OC1=C(C(=O)OC1)C2c1cc(OC)c(OC)c(OC)c1 (stereo unspecified)", "system under test": "DU-145 prostate", "category label": "no (0)"}
{"compound": "CCCCCCc1nc2nc(Cl)c(Cl)nc2[nH]1", "system under test": "DU-145 prostate", "category label": "yes (1)"}
{"compound": "COc1ccc(NC(=O)c2sc3nc(C)c(C(O)c4ccc(OC)cc4)cc3c2N)cc1 (stereo unspecified)", "system under test": "DU-145 prostate", "category label": "no (0)"}

---

Tested on: T-47D breast
Test: NCI-60 one-dose screen, 48 h (100 = growth as untreated, 0 = no growth, -100 = all killed)
Details: 10 µM unless noted
Compounds without any hit were thinned out: in the full panel of roughly 83,000, 20% have a hit.

{"compound": "CCCC1C(C(=O)OCC)=C(N)Oc2cc(O)ccc21 (configuration not stated)", "units symbol": "%", "growth": 88.8}
{"compound": "COc1ccc(-c2nn(Cc3ccccc3)c3c2-c2oncc2CC3)cc1OC", "units symbol": "%", "growth": 84.8}
{"compound": "CCCN=C(N)c1ccc(NC(=O)c2ccc(C(=O)Nc3ccc(C(N)=NCCC)cc3)cc2)cc1", "units symbol": "%", "growth": 77.6}
{"compound": "CC1=CC2(C)/C=C(C)/C=C\\CC(O)/C=C3/C=CC(=C4C(=O)OC2(CC1C)C4=O)OC3 (configuration not stated)", "units symbol": "%", "growth": -33.9}
{"compound": "O=C(CN1CCOCC1)Nc1ccc2ncnc(Nc3ccc(Oc4cccc(C(F)(F)F)c4)c(Cl)c3)c2c1", "units symbol": "%", "growth": 19.5}
{"compound": "COc1ccccc1OCC(=O)N1CCCCCC1", "units symbol": "%", "growth": 103}
{"compound": "CC(C)NC(=O)N1C(=O)CCC1NNC(=O)c1ccc([N+](=O)[O-])cc1 (configuration not stated)", "units symbol": "%", "growth": 94.9}
{"compound": "C=Cc1cc[n+](CCCCCCCCCCCC)cc1", "units symbol": "%", "growth": 131}
{"compound": "O=C1c2cccnc2C(=O)c2nc3cc(N4CCN(C5CC5)CC4)ccc3nc21", "units symbol": "%", "growth": 22.5}
{"compound": "Nc1nnc2cc(Cl)ccc2n1", "units symbol": "%", "growth": 93.1}
{"compound": "COc1ccc2nc(N=Nc3c(O)ccc4ccccc34)sc2c1", "units symbol": "%", "growth": 27.3}
{"compound": "O=CNc1cc(Cl)cc(Cl)c1", "units symbol": "%", "growth": 100}
{"compound": "O=C(c1ccccc1)N1N=C(c2ccc(-n3ccc(C(F)(F)F)n3)cc2)CC1c1ccc[nH]1 (configuration not stated)", "units symbol": "%", "growth": 73.5}
{"compound": "COc1ccc(Cn2nc(-c3cc(OC)c(OC)c(OC)c3)c3c2CCc2cnoc2-3)cc1OC", "units symbol": "%", "growth": 65.8}
{"compound": "S=c1[nH]cccc1-c1nnc2n1Nc1nc3ccc(Cl)cc3cc1CS2", "units symbol": "%", "growth": 89.5}
{"compound": "CCCCCOc1ccc(/C=N/Nc2cc(C)nc3ccc(Br)cc23)cc1", "units symbol": "%", "growth": 83.4}
{"compound": "Fc1ccc(C2CC(c3cccc(Nc4ccncc4)c3)=NN2c2cc(Cl)cc(Cl)c2)cc1 (configuration not stated)", "units symbol": "%", "growth": 74.6}
{"compound": "CCOC(=O)N1CCc2c(sc3nc4nc[nH]n4c(=O)c23)C1", "units symbol": "%", "growth": 88.9}
{"compound": "CC(C)(O)C1CCCN1C(=O)c1ccccc1I (configuration not stated)", "units symbol": "%", "growth": 85.7}
{"compound": "O=S(=O)(c1ccc(N/N=C\\c2ccccc2)cc1)c1ccc(N/N=C/c2ccccc2)cc1", "units symbol": "%", "growth": 56}
{"compound": "Cc1ccc(C(=O)Nc2ccccc2C(=O)N/N=C(\\c2ccccc2)c2ccccn2)cc1", "units symbol": "%", "growth": 13.4}
{"compound": "CC(=O)c1c(-c2ccc(OC(F)(F)F)cc2)nc2ccccn12", "units symbol": "%", "growth": 80.6}

---

Test system: DU-145 prostate
Assay: NCI-60 one-dose screen, 48 h (100 = growth as untreated, 0 = no growth, -100 = all killed)
Settings: 10 µM unless noted
This is part of a sample that, as a whole, favours compounds with a hit. Of some 83,000 tested, about 20% had one in any assay.

{"molecule": "CC1(C)[C@H](O)CC[C@]2(C)[C@@H]1CC[C@@]13C[C@@H](CC[C@H]12)[C@@](O)(CO)C3", "system under test": "DU-145 prostate", "units symbol": "%", "growth": 117}
{"molecule": "CCCCCCOc1ccc(C(=N)N(CCCC)CCCC)c2ccccc12", "system under test": "DU-145 prostate", "units symbol": "%", "growth": -92.4}
{"molecule": "O=C(O)c1cn(C2CC2)c2cc(N3CCN(C(=O)C[n+]4cccc5ccccc54)CC3)c(F)cc2c1=O", "system under test": "DU-145 prostate", "units symbol": "%", "growth": 91.7}
{"molecule": "CCN1C(=O)N(CC)C2NC(SC)=NC21 (stereo not given)", "system under test": "DU-145 prostate", "units symbol": "%", "growth": 111}
{"molecule": "CC(=O)N1c2ccccc2NC2=C(C(=O)N(C)C2(C)C)C1C (stereo not given)", "system under test": "DU-145 prostate", "units symbol": "%", "growth": 79}
{"molecule": "CC(=O)c1c[nH]c2ccc(-c3ccnc(Nc4ccc(NC(=O)C5CCCC5)c(CN5CCOCC5)c4)n3)cc12", "system under test": "DU-145 prostate", "units symbol": "%", "growth": -1.77}
{"molecule": "NC(=O)c1cccc(-c2ccccc2N2CCCCC2)c1", "system under test": "DU-145 prostate", "units symbol": "%", "growth": 99.8}
{"molecule": "CC(=O)c1cc2c(N)c(C(=O)Nc3cncc4ccccc34)sc2nc1C", "system under test": "DU-145 prostate", "units symbol": "%", "growth": 115}
{"molecule": "Nc1c(Cl)cc([N+](=O)[O-])cc1Br", "system under test": "DU-145 prostate", "units symbol": "%", "growth": 105}
{"molecule": "COc1ccc(-c2nc(SC(C)C)nc(NNC(N)=O)c2C#N)cc1", "system under test": "DU-145 prostate", "units symbol": "%", "growth": 94.2}
